# Target or system: T1, hK1 (human tissue kallikrein 1), recombinant (human, UniProt P06870 25-262)
# T1 construct: Expressed in P. pastoris from KLK1 cDNA and purified; enzymatically active; also called KLK1; Recombinant (Pichia) Kallikrein
# Protocol description: SPR
So I've got a bunch of binders here, and I need their koff values.

M0093-C08 (Fab, V domains shown) VH: EVQLLESGGGLVQPGGSLRLSCAASGFTFSRYPMGWVRQAPGKGLEWVSSIYPSGGSTYYADSVKGRFTISRDNSKNTLYLQMNSLRAEDTAVYYCARVGVWYGMDVWGQGTTVTVSS VL: DIQMTQSPGTLSLSPGERATLSCRASQSVSSSYLAWYQQKPGQAPRLLIFAASTRATGIPDRFSGSGSATDFTLTISSLEPEDFAVYYCQQRSNWPPELTFSGGTKVEIKR
0.00578 s⁻¹

Now look at this entry.
So, M0096-D03 (Fab, V domains shown) VH: EVQLLESGGGLVQPGGSLRLSCAASGFTFSHYWMVWVRQAPGKGLEWVSWIGPSGGGTVYADSVKGRFTISRDNSKNTLYLQMNSLRAEDTAVYYCARGNGGFDSWGRGTLVTVSS VL: AQSELTQPRSVSGSPGQSVTISCTGTTRDVGAYKYVSWYQQYPGKAPKLMLSDVSKRPSGVPDRFSGSKSGNTASLTISGLQSEDEADYYCCSFAGSYTWIFGGGTKVTVLG ? Its koff was 0.00945 s⁻¹
